These data points were gathered from ChEMBL document CHEMBL1777723.

# Tested Target: Tyrosine-protein phosphatase non-receptor type 1 (Homo sapiens, UniProt P18031)
# Sequence (P18031 whole entry): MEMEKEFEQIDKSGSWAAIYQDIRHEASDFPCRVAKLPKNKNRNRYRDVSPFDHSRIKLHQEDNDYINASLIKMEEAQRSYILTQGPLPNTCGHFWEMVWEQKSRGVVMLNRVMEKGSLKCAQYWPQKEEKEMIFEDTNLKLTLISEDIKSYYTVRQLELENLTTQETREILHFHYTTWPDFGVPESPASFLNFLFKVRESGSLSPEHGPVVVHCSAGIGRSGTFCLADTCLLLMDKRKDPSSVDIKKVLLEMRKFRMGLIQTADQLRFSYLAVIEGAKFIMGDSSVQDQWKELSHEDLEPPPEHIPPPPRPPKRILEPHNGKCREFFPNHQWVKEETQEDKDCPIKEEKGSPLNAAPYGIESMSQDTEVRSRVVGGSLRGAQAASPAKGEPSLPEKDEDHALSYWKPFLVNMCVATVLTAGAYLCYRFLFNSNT
# Assay Info: Inhibition of recombinant human PTP1B using p-nitrophenyl phosphate as substrate after 30 mins
pIC50: −log10 of the molar value.
Measurement Label: pIC50

Use these answered entries as a reference point.
[ask] Recorded pIC50 for `COc1cc(O)c(Br)cc1/C=C/C(=O)c1ccc(NC(=O)c2ccc(C(C)(C)C)cc2)cc1` , please?
[reply] 5.47

[ask] Moving on to `COc1cc(O)c(Br)cc1/C=C/C(=O)c1cccc(N(C)C)c1`
[reply] 4.58

[ask] Moving on to `COc1cc(O)c(Br)cc1/C=C/C(=O)c1cc2c(cc1N(C)C)OCO2`
[reply] 5.20

[ask] Moving on to `COc1cc(O)c(Br)cc1/C=C/C(=O)c1cccc(NS(C)(=O)=O)c1`
[reply] 4.95

[ask] Moving on to `C=CCN(CC=C)c1cccc(C(=O)/C=C/c2cc(Br)c(O)cc2OC)c1`
[reply] 5.35

(P) C=C(C)C(C)c1cc(C(=O)/C=C/c2cc(Br)c(OC3CCCCO3)cc2O)ccc1OC (centres undefined)
(Q) COc1cc(O)c(Br)cc1/C=C/C(=O)c1ccc(N2CCOCC2)cc1
(R) C=C(C)[C@H](C)c1cc(/C=C/C(=O)c2ccc(O)cc2)c(OC)cc1O
[ask] Order the records by pIC50, with each subsequent value no larger than the one before. I would appreciate it if you listed the labels in the requested order.
[reply] P, Q, R

(A) CCCCOc1ccc(C(=O)/C=C/c2cc(Br)c(O)cc2OC)cc1
(B) COc1cc(O)c(Br)cc1/C=C/C(=O)c1ccc(OC(=O)c2ccc(Br)cc2)cc1
[ask] // pick larger pIC50 from pair: A vs B Refer to your chosen item by its label in the answer.
[reply] B
(B: 5.64, A: 5.38)

(a) COc1cc(O)c(Br)cc1/C=C/C(=O)c1ccc(OS(=O)(=O)c2ccc(C)cc2)cc1
(b) COc1cc(O)c(Br)cc1/C=C/C(=O)c1ccc(N)cc1
[ask] // task: argmin of pIC50 over [ a , b ] Refer to your chosen item by its label in the answer.
[reply] b
